Counter-ions that a name gives are not always drawn.
assayEndpoint: melting point (°C)

I: COc1cc(-c2nc(Nc3cccc(C(F)(F)F)n3)n(C)n2)ccc1-n1cnc(C)c1 [Compound 236]
II: COc1cc(-c2nc(Nc3ccccc3C(F)(F)F)n(C)n2)ccc1-n1cnc(C)c1 [Compound 157]
III: COc1cc(-c2nc(Sc3cccc(C(F)(F)F)c3)n(C)n2)ccc1-n1cnc(C)c1 (as salt: HCl) (hydrate or solvate) [Compound 249]
From the items above, give an ordering by melting point that starts at the lowest reported number. Please express your ranking as an ordered list of the labels.
III, II, I

A: COc1ccc(CO)c(Nc2nc(-c3ccc(-n4cnc(C)c4)c(OC)c3)nn2C)c1 [Compound 200]
B: COc1cc(-c2nc(-c3cc(F)c(F)c(F)c3)n(C(C)C)n2)ccc1-n1cnc(C)c1 [Compound 84]
Hello, I am sorting some records. Could you say if A or B has the smaller melting point value? Your choice should be expressed through its label.
B
(B: 122.23 °C, A: 235.2 °C)

I: COc1cc(-c2nc(C(=O)c3ccc(F)cc3)n(C)n2)ccc1-n1cnc(C)c1 [Compound 21]
II: COc1cc(-c2nc3cncc(-c4ccc(F)cc4C)n3n2)ccc1-n1cnc(C)c1 [Compound 295]
Compare I and II and name the one whose reported melting point is smaller. Write down the label of the entry you select.
I
